// provenance: the supplement of paper PMC10567573

Quick list: protein stability index per entry.
B1: ANKRD9 (parent)
chain: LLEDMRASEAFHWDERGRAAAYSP

Variants of: B1
experiment-summary: protein stability index of a GFP-peptide fusion (GPS, HEK-293T) (PSI 1-6); higher = more stable;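 further: lentivirally expressed fusions sorted by FACS into six bins by GFP to DsRed ratio, PSI derived from sequencing read proportions per bin multiplied by bin number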
condition-summary: c terminus: a fixed tail appended

- sequence-text: "LLEDMRASEAFHKDERGRAAAYSP [W13K]"
  protein stability index: 2.93

Lab note: LLEDMRASEAFHWDEEGRAAAYSP [R16E] gave protein stability index of 1.93

protein stability index reading for LLEDMAASEAFHWDERGRAAAYSP [R6A] : 3.56

The recorded protein stability index for entry LLEDMRHSEAFHWDERGRAAAYSP [A7H] equals 3.62

Item: LLEDMRASEAFHWDERGRAAAYSL [P24L] | protein stability index: 1.38

Please fill in: protein stability index reported for LLEDPRASEAFHWDERGRAAAYSP [M5P] = 4.09
